Target: FGFR1 (UniProt P11362)
Sequence (P11362 whole entry, looked up): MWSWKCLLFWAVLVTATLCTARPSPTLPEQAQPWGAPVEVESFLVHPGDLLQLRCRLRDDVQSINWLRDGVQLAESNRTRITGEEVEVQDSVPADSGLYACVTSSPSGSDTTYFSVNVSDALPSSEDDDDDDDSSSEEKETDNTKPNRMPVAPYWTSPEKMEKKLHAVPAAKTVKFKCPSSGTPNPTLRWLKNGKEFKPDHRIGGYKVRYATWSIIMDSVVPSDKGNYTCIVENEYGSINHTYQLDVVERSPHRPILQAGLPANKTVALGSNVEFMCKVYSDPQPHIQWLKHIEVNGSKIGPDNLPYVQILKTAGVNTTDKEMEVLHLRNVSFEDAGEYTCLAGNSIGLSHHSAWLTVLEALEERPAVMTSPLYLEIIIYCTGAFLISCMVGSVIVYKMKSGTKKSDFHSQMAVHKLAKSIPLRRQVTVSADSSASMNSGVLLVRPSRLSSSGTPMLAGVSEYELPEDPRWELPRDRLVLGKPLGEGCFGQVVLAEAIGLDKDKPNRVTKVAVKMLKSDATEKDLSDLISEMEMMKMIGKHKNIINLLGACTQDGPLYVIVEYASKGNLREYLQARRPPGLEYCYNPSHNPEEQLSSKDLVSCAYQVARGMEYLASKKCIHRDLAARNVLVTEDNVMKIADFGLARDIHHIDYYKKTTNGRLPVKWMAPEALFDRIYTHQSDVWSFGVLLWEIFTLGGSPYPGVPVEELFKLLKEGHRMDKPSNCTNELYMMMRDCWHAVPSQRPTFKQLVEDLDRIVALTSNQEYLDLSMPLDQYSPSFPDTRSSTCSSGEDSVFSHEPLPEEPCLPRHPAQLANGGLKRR
Assay: phosphorylation enrichment, bacterial display (enrichment ratio); higher = better substrate or ligand; peptides without Tyr show the background;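 note: 11-residue human phosphosite peptides and single-mutation variants displayed on the E. coli surface, counted by deep sequencing, each peptide's frequency after selection divided by its frequency in the unselected input library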;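 note: frequency after pTyr selection over input frequency; kinase dosed for 20-30% of maximal phosphorylation in three min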
Tag: met if measured phosphorylation enrichment is not below 0.4, not met if it is.

- ENTRY_SEQUENCE: "VAMDDYLKNVM [LRRK2_Y707]"
  ASSIGNED_CLASS: "met"
- ENTRY_SEQUENCE: "KPLMPYMRYSR [SMARCE1_Y73]"
  ASSIGNED_CLASS: "met"
- ENTRY_SEQUENCE: "TQIGQYGNGLK [MORC2_Y100]"
  ASSIGNED_CLASS: "met"
- ENTRY_SEQUENCE: "PVFIKYLPEWT [PSEN1_Y240_L235P]"
  ASSIGNED_CLASS: "met"
- ENTRY_SEQUENCE: "ASFSLYEPAKM [MKI67_Y340_P338S]"
  ASSIGNED_CLASS: "met"
- ENTRY_SEQUENCE: "RFVFFYSFLLK [PTEN_Y178_YF]"
  ASSIGNED_CLASS: "met"
- ENTRY_SEQUENCE: "AGREIYESDKC [TTN_Y4424]"
  ASSIGNED_CLASS: "met"
- ENTRY_SEQUENCE: "YTTIHYNYMCN [TP53_Y234_C229Y]"
  ASSIGNED_CLASS: "met"
- ENTRY_SEQUENCE: "DQVEQCKKELE [LMNA_Y259_Y259C]"
  ASSIGNED_CLASS: "met"
- ENTRY_SEQUENCE: "CDIARYIVSQL [MAST2_Y461_P459A]"
  ASSIGNED_CLASS: "met"
- ENTRY_SEQUENCE: "VKMLPYTEVTR [GDI1_Y93_L92P]"
  ASSIGNED_CLASS: "met"
- ENTRY_SEQUENCE: "FLNSIYQSRDE [ROS1_Y2227_K2228Q]"
  ASSIGNED_CLASS: "not met"
- ENTRY_SEQUENCE: "FEELVYETVRV [FSHB_Y76_K72E]"
  ASSIGNED_CLASS: "met"
- ENTRY_SEQUENCE: "GRPMDYQVSIT [OTOF_Y254]"
  ASSIGNED_CLASS: "met"
- ENTRY_SEQUENCE: "VEYAKYGSLRG [RET_Y809]"
  ASSIGNED_CLASS: "not met"
- ENTRY_SEQUENCE: "HKDNNYVSMWF [PAPOLG_Y432]"
  ASSIGNED_CLASS: "met"
- ENTRY_SEQUENCE: "YLENYYDLEKD [MMP3_Y42_K45E]"
  ASSIGNED_CLASS: "met"
- ENTRY_SEQUENCE: "FGSLLYKYAFK [FANCD2_Y458]"
  ASSIGNED_CLASS: "not met"
- ENTRY_SEQUENCE: "IKNSGYISQYL [EIF2AK3_Y585_R588Q]"
  ASSIGNED_CLASS: "met"
- ENTRY_SEQUENCE: "RDIHDYIKHLG [UNC13C_Y308]"
  ASSIGNED_CLASS: "met"
- ENTRY_SEQUENCE: "GIVEDYRPPFF [ACVRL1_Y421_YF]"
  ASSIGNED_CLASS: "met"
- ENTRY_SEQUENCE: "SGGGSYGSGGG [KRT1_Y539]"
  ASSIGNED_CLASS: "not met"
- ENTRY_SEQUENCE: "FDRREYSRFEK [ITGB7_Y758_YF]"
  ASSIGNED_CLASS: "met"
- ENTRY_SEQUENCE: "KDFNKYVAYIE [KDM4B_Y31]"
  ASSIGNED_CLASS: "not met"
- ENTRY_SEQUENCE: "SLNEGYARDFD [FBP1_Y216]"
  ASSIGNED_CLASS: "met"
- ENTRY_SEQUENCE: "ADYPDCKYRPR [SOX11_Y116_Y116C]"
  ASSIGNED_CLASS: "met"
- ENTRY_SEQUENCE: "PRLMLYNPTTY [EGFR_Y270_P266R]"
  ASSIGNED_CLASS: "met"
- ENTRY_SEQUENCE: "RRNVYYYSYLL [PTEN_Y177_Y174N]"
  ASSIGNED_CLASS: "met"
